Origin of the recorded values: patent US20240174750A1

# target.or.test.system: T1, extracellular domain (ECD) of cyno CD47 (4aa-126aa) with C-terminal 6xHis tag (cynomolgus monkey, UniProt Q08722 19-140 (human entry), limits assumed)
# T1 construct: also called cynomolgus monkey CD47
# T1 chain: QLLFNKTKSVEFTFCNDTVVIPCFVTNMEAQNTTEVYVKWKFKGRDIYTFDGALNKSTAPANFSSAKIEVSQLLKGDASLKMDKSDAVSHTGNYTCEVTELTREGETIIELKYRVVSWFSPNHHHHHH
# method.notes: ELISA, coated recombinant CD47, FIG. 4A-4B
recorded.endpoint: binding result

>>> reported("hu.1D15E11-V2 (antibody, human IgG1, kappa, V domains shown, Humanised variant of 1D15E11; also called hu.1D15E11 variants) VH: EVQLVQSGAEVKKPGASVKVSCKASGYTFTSYVMHWVRQAPGQRLEWMGYIDPYNEGTKYNEKFKGRVTITSDTSASTAYMELSSLRSEDTAVYYCSRGGMARRSFDYWGQGTLVTVSS VL: DIQMTQSPSSLSASVGDRVTITCLASQTIGTWLTWYQQKPGKAPKLLIYAATTLAEGVPSRFSGSGSGTDFTLTISSLQPEDFATYYCQQLYSTPWTFGGGTKVEIKR")
"binds"
